Sourced from patent USRE30451E

# assay_context: tumour-inoculated ICR/JCL mice, intraperitoneally once a day for 10 days, doses 25 mg/kg to 0.19 mg/kg, Behres-Karber's method, observed up to 50 days
endpoint_label: LD50
One number for each entry.

compound	LD50
Cc1c(N)nc([C@H](CC(N)=O)NC[C@H](N)C(N)=O)nc1C(=O)N[C@H](C(=O)N[C@H](C)[C@@H](O)[C@H](C)C(=O)N[C@H](C(=O)NCCc1nc(-c2nc(C(=O)NCCCCN=C(N)N)cs2)cs1)[C@@H](C)O)[C@@H](O[C@@H]1O[C@@H](CO)[C@@H](O)[C@H](O)[C@@H]1O[C@H]1O[C@H](CO)[C@@H](O)[C@H](OC(N)=O)[C@@H]1O)c1cnc[nH]1 [Compound 3, Bleomycin B2, reference compound]	7.5

# input for lookup
Prompt line: Quick check: LD50 of COCCCNCCCNC(=O)c1csc(-c2csc(CCNC(=O)C(NC(=O)C(C)C(O)C(C)NC(=O)C(NC(=O)c3nc(C(CC(N)=O)NCC(N)C(N)=O)nc(N)c3C)C(OC3OC(CO)C(O)C(O)C3OC3OC(CO)C(O)C(OC(N)=O)C3O)c3cnc[nH]3)C(C)O)n2)n1 (centres unmarked) ?
Response line: 7.5

###

# assay_context: tumour-inoculated ICR/JCL mice, intraperitoneally once a day for 10 days, doses 25 mg/kg to 0.19 mg/kg, Behres-Karber's method, observed up to 50 days
endpoint_label: LD50
Answers are plain numbers.

molecule	LD50
Cc1c(N)nc([C@H](CC(N)=O)NC[C@H](N)C(N)=O)nc1C(=O)N[C@H](C(=O)N[C@H](C)[C@@H](O)[C@H](C)C(=O)N[C@H](C(=O)NCCc1nc(-c2nc(C(=O)NCCCNCCCCN)cs2)cs1)[C@@H](C)O)[C@@H](O[C@@H]1O[C@@H](CO)[C@@H](O)[C@H](O)[C@@H]1O[C@@H]1O[C@H](CO)[C@@H](O)[C@H](OC(N)=O)[C@@H]1O)c1cnc[nH]1 [Compound 7, Bleomycin A5, reference compound]	15.6
Cc1c(N)nc(C(CC(N)=O)NCC(N)C(N)=O)nc1C(=O)NC(C(=O)NC(C)C(O)C(C)C(=O)NC(C(=O)NCCc1nc(-c2nc(C(=O)NCCCNCCCN(C)C)cs2)cs1)C(C)O)C(OC1OC(CO)C(O)C(O)C1OC1OC(CO)C(O)C(OC(N)=O)C1O)c1cnc[nH]1 (stereo not drawn) [Compound 21]	10.3

Please examine the following record next.
Prompt line: What value of measured LD50 is listed for Cc1c(N)nc(C(CC(N)=O)NCC(N)C(N)=O)nc1C(=O)NC(C(=O)NC(C)C(O)C(C)C(=O)NC(C(=O)NCCc1nc(-c2nc(C(=O)NCCCNCCCNC(C)c3ccccc3)cs2)cs1)C(C)O)C(OC1OC(CO)C(O)C(O)C1OC1OC(CO)C(O)C(OC(N)=O)C1O)c1cnc[nH]1 (stereo not drawn) [Compound 15] ?
Response line: 13.1
